- target.or.system: UniProt Q9H9B1
- Sequence (Q9H9B1 whole entry, species assumed): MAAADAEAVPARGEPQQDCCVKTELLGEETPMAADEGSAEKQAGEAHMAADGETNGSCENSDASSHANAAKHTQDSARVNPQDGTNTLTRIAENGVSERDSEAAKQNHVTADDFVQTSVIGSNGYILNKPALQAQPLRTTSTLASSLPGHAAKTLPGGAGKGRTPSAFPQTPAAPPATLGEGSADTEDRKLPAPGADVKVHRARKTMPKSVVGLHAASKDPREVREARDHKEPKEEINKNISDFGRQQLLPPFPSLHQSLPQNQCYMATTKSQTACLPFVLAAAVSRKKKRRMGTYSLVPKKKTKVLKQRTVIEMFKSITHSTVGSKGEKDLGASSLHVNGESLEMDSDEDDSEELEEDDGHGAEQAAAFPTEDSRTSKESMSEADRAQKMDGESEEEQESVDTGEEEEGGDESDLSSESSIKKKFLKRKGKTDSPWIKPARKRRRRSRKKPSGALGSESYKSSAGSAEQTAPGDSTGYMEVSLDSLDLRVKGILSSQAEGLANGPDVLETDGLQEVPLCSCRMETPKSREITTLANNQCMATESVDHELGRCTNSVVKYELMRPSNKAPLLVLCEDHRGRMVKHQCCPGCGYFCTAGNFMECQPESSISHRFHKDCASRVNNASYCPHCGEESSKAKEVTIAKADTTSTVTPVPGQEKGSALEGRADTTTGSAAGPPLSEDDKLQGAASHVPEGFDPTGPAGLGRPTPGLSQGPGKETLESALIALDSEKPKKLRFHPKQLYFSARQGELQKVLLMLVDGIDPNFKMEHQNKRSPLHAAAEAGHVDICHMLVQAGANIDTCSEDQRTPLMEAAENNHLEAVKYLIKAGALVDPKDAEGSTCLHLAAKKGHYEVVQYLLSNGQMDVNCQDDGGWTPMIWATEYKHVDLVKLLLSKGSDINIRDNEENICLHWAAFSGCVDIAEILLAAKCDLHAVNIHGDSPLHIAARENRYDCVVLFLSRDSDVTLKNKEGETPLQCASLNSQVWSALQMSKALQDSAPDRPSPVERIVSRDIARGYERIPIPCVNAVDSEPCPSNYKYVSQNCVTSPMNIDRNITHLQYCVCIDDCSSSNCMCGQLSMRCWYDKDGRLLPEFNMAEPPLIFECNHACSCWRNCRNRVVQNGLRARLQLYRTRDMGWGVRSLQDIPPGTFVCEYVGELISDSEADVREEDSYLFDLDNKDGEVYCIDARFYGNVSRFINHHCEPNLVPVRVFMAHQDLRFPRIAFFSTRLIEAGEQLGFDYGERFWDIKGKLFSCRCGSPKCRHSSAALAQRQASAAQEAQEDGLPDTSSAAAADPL
- assay.procedure: EHMT1 enzyme assay on peptide substrate (EHMT1 PEP)
- Type: biochemical
- condition.parameters: Table III; read-out: EHMT1 PEP (IC50 μM)
Examples of compounds with documented IC50 follow.

>  <compound>
CNc1cc(C)nc(Nc2ccc(OC)c(OCC3CCCO3)c2)n1 (stereo not shown)

>  <IC50>
1 to 10 µM

$$$$
>  <compound>
CCNC(=O)c1cc(Nc2nccc(NC)n2)ccn1

>  <IC50>
> 10 µM

$$$$
>  <compound>
CNc1cc(CC(F)(F)F)nc(Nc2ccc(OC)c(OCCCN3CCCC3)c2)n1

>  <IC50>
1 to 10 µM

$$$$
>  <compound>
CCN(CC)CCCOc1cc(Nc2nccc(NC)n2)ccc1OC

>  <IC50>
1 to 10 µM

$$$$
>  <compound>
CNc1ccnc(Nc2ccc(OC)c(OCC3CCN(CC4CC4)C3)c2)n1 (stereo not shown)

>  <IC50>
0.1 to 1 µM

$$$$
>  <compound>
CNc1cc(C)nc(Nc2ccc(OC)c(OCC3CN(CC4CC4)C3)c2)n1

>  <IC50>
0.1 to 1 µM

$$$$
>  <compound>
CNc1ccnc(Nc2ccc3c(c2)N(C(=O)CCN(C)C)CC3)n1

>  <IC50>
> 10 µM

$$$$
>  <compound>
CNc1ccnc(Nc2ccc(OC)c(OCCCN3CCCC3C)c2)n1 (stereo not shown)

>  <IC50>
0.1 to 1 µM

$$$$
>  <compound>
CNc1nc(Nc2ccc(OC)c(OCCCN3CCCC3)c2)nc2c1CCC2

>  <IC50>
0.1 to 1 µM

$$$$
>  <compound>
CNc1cc(C)nc(Nc2cc(OCCCN3CCCC3)c(OC)cc2F)n1

>  <IC50>
1 to 10 µM

$$$$
>  <compound>
CNc1ccnc(Nc2ccc(OC)c(OCCCN3CC[C@H](F)C3)c2)n1

>  <IC50>
0.1 to 1 µM

$$$$
>  <compound>
COc1ccc(Nc2nc(C)c(F)c(NC(C)C)n2)cc1OCCCN1CCCC1

>  <IC50>
0.1 to 1 µM

$$$$
>  <compound>
COc1cnc(Nc2cc(C)nc3[nH]ccc23)cc1OCCCN1CCCC1

>  <IC50>
0.1 to 1 µM

$$$$
>  <compound>
CNc1cc(Nc2cc(OCCCN3CCCC3)c(OC)cn2)ccn1

>  <IC50>
< 0.1 µM

$$$$
>  <compound>
CNc1ccnc(Nc2ccc3c(C)nn(CCCN(C)C)c3c2)n1

>  <IC50>
> 10 µM

$$$$
>  <compound>
CNc1cnnc(Nc2cc(OCCCN3CCCC3)c(OC)cn2)c1

>  <IC50>
< 0.1 µM

$$$$
>  <compound>
CNc1nc(C2CCN(C)CC2)c2cc(OC)c(OCCCN3CCCC3)cc2n1

>  <IC50>
< 0.1 µM

$$$$
>  <compound>
CNc1nc(Nc2ccc(OC)c(OCCCN3CCCC3)c2)nc(C)c1F

>  <IC50>
0.1 to 1 µM

$$$$
>  <compound>
COc1ccc(Nc2ccc3cnn(C)c3c2)cc1OCCCN1CCCC1

>  <IC50>
> 10 µM

$$$$
>  <compound>
CNc1cc(Nc2cc(OCCCN3CCCC3)c(OC)cn2)nc(C)c1F

>  <IC50>
< 0.1 µM

$$$$
>  <compound>
CNc1ccnc(Nc2ccc(OC)c(OC[C@H](O)CN3CCCC3)c2)n1 [Compound 299]

>  <IC50>
< 0.1 µM

$$$$
>  <compound>
CNc1ccnc(Nc2cccc(N3CCC(N(C)C)C3)c2)n1 (stereo not shown)

>  <IC50>
> 10 µM

$$$$
>  <compound>
CCNC(=O)c1cccc(Nc2nccc(NC)n2)c1

>  <IC50>
> 10 µM

$$$$
>  <compound>
CNc1ccnc(Nc2ccc(OC)c(OCC3CCN(C)C3)c2)n1 (stereo not shown) [Compound 393]

>  <IC50>
< 0.1 µM

$$$$
>  <compound>
CNc1cc(N2CCCC2)nc(Nc2ccc(OC)c(OCCCN3CCCC3)c2)n1

>  <IC50>
> 10 µM

$$$$
>  <compound>
COc1ccc(Nc2cc3c(cn2)ncn3C)cc1OCCCN1CCCC1

>  <IC50>
> 10 µM

$$$$
>  <compound>
COc1ccc(Nc2nc(C)cc(O)n2)cc1OCCCN1CCCC1

>  <IC50>
> 10 µM

$$$$
>  <compound>
COc1ccc(Nc2nccc(-n3nc(C)cc3C)n2)cc1OCCCN1CCCC1

>  <IC50>
> 10 µM

$$$$
>  <compound>
CNc1ccnc(Nc2ccc(OC)c(OCCC3CCCN3C)c2)n1 (stereo not shown)

>  <IC50>
0.1 to 1 µM

$$$$
>  <compound>
COc1ccc(Nc2ccc3ncc(C)n3n2)cc1OCCCN1CCCC1

>  <IC50>
1 to 10 µM

$$$$
>  <compound>
COc1cnc(Nc2nccc3[nH]ccc23)cc1OCCCN1CCCC1

>  <IC50>
< 0.1 µM

$$$$
>  <compound>
CNc1ccnc(Nc2cc(OCCCN3CCCC3)c(OC)cn2)c1

>  <IC50>
< 0.1 µM

$$$$
>  <compound>
CNc1ccnc(Nc2ccc(OC)c(OCc3cn(C4CC4)nn3)c2)n1

>  <IC50>
> 10 µM

$$$$
>  <compound>
CNc1ccnc(Nc2ccc(OC)c(OCC3CCN(CCOC)C3)c2)n1 (stereo not shown)

>  <IC50>
1 to 10 µM

$$$$
>  <compound>
COc1cnc(Nc2cnc3ccccn23)cc1OCCCN1CCCC1

>  <IC50>
1 to 10 µM

$$$$
>  <compound>
COc1cnc(Nc2nc(C)nc3[nH]ccc23)cc1OCCCN1CCCC1

>  <IC50>
0.1 to 1 µM

$$$$
>  <compound>
CNc1ccnc(Nc2ccc(OC)c(OCC3CCN(C)C3)c2)n1 (single isomer, unassigned) [Compound 416]

>  <IC50>
< 0.1 µM

$$$$

The values you see were collected from patent US20210198277A1.
